test system: OVCAR-4 ovarian; test: NCI-60 one-dose screen, 48 h (100 = growth as untreated, 0 = no growth, -100 = all killed); details: 10 µM unless noted
The panel holds about 83,000 compounds, 20% with a hit somewhere; the sample as a whole holds those more often.
I'd appreciate it if you marked entries Condition met when growth is lower than 60% and Condition not met when it is not.

compound | labelValue
Nc1nc(Cl)c2[nH]cnc2n1 | Condition not met
Cc1cc2c(C#N)n3c(c2cc1C)C(=O)C(c1ccccc1)Oc1ccccc1-3 (stereo not given) | Condition met
Cn1cnc([N+](=O)[O-])c1S(=O)(=O)Oc1ccc(Cl)cc1 | Condition not met
CCC(C)(C)C(=O)O[C@H]1C[C@@H](C)C=C2C=C[C@H](C)[C@H](CC[C@@H]3C[C@@H](O)CC(=O)O3)[C@H]21 | Condition not met
O=C1Nc2ccccc2C12Nc1cc(Cl)ccc1S2 (stereo not given) | Condition not met
Cc1c(C(N)=O)sc2c1C(=O)N(Cc1ccccc1)C1=NN=C(c3ccc(Cl)cc3)CN12 | Condition met
COc1cc(C2NC(c3ccc(Cl)cc3)C(C)C(=NC(=O)c3cnccn3)C2C)cc(OC)c1OC (stereo not given) | Condition not met
c1ccc2cc(C[n+]3ccn(CCCCCCCn4cc[n+](Cc5ccc6ccccc6c5)c4)c3)ccc2c1 | Condition met
COc1ccc(C(=O)COc2cccc(/C=C3\Oc4ccc5ccccc5c4C3=O)c2)cc1 | Condition not met
